This collection of values is drawn from patent US20110313021A1.

target: GST-tagged recombinant MCAK protein (amino acids 182 to 646 of the human MCAK protein) (Homo sapiens, UniProt Q99661); construct: corresponding to amino acids 182 to 646 of the human MCAK protein; GST; assay: MCAK ATPase assay; conditions: dose-response, read-out: 50% inhibitory concentration (IC50) for MCAK activity
Sequence (Q99661 182-646): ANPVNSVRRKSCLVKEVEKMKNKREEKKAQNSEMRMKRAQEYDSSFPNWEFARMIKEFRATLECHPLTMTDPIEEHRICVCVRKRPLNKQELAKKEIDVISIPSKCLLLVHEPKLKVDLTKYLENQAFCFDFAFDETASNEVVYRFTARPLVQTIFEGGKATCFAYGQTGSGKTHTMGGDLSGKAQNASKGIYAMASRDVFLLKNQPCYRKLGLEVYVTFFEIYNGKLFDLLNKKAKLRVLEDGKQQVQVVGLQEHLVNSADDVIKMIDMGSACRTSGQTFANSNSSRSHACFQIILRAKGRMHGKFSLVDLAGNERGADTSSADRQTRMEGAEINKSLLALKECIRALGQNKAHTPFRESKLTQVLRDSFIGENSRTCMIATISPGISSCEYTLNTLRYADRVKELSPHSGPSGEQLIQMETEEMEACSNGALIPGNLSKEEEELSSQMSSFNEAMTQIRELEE
Property label: IC50

IN: Which IC50 value is on record for Cc1cc2c(C(C)C)c(O)c(O)c(C=O)c2c(O)c1-c1c(C)cc2c(C(C)C)c(O)c(O)c(C=O)c2c1O [gossypol] ?
OUT: ~11 µM
